# ASSAYED TARGET: Aspartate--tRNA(Asp/Asn) ligase (Mycobacterium tuberculosis (strain ATCC 25618 / H37Rv)) (UniProt P9WFW3)
# EXPERIMENT SUMMARY: Assay for Asp RNA synthetase-1 from Mycobacterium tuberculosis
# Type: functional
# Set-up: scale not given: in the data most compounds retested in dose-response had high values
# CONDITION SET: 30 µM
Recorded Percent Effect, one value per entry.
PROPERTY MEASURED: Percent Effect (%)

>>> df
                                    compound  observed
 0  CCn1nc2c(cc1=O)CN(Cc1nc3ccccc3c(=O)[nH]1)CC2     -3.91
 1  Cc1cn(-c2ccccc2)nc1NS(=O)(=O)c1cccc(C(=O)O)c1      2.62
 2         Cn1c(CN2CCN(CC3CC3)CC2)nnc1C1CCC1      8.05
 3  CN(C)CC(=O)N1C[C@@H]2CC[C@H](Oc3ccccc3Cl)[C@@H]2C1      1.77
 4  CCN(CC1CCCO1)C(=O)Nc1cc(OC)c(OC)cc1C (stereo unspecified)      -2.8
 5  C[C@]1(O)CCN(Cc2cncs2)C[C@@H]1Oc1cccc(F)c1     -1.46
 6  O=C(Cc1ccccn1)N1CCC2(CC1)CC(Oc1ccccn1)CO2 (stereo unspecified)     -3.87
 7  CN1CCc2cc(C(CNS(=O)(=O)c3cccs3)N3CCCC3)ccc21 (stereo unspecified)    -0.102
 8  NC(=O)c1ccc(N2CCCCC2)c(NC(=O)c2cc(Br)ccc2F)c1        11
 9     CCCc1nnsc1C(=O)NCC1CCN(S(C)(=O)=O)CC1      -7.1
10    Cc1cccc(C(=O)NCc2ccc(S(N)(=O)=O)cc2)n1    -0.577

* * *

The following compounds are listed with their measured Percent Effect values.
# ASSAYED TARGET: Aspartate--tRNA(Asp/Asn) ligase (Mycobacterium tuberculosis (strain ATCC 25618 / H37Rv)) (UniProt P9WFW3)
# EXPERIMENT SUMMARY: Assay for Asp RNA synthetase-1 from Mycobacterium tuberculosis
# Format: functional
# Design: scale not given: in the data most compounds retested in dose-response had high values
# CONDITION SET: 30 µM
PROPERTY MEASURED: Percent Effect (%)

In [3]: df
Out[3]:
                                    compound  scale_unit  observed
 0  CNc1cc(N2CCCC2CNCc2c[nH]nc2C(C)(C)C)ncn1 (stereo unspecified)           %      1.25
 1  CC(C)(C)c1cc(CN2CC[C@@H](NC(=O)c3cccnc3)[C@H](O)C2)n[nH]1           %     -4.62
 2  COc1cccc(CN2CCN(c3ccc4nncn4n3)C(C)C2)c1 (stereo unspecified)           %     -3.34
 3  O=C(O)[C@@H]1CN(C(=O)c2cc(C3CC3)n[nH]2)C[C@H]1c1cccc(F)c1           %     -3.42
 4  CC1CN(CC(=O)NC(=O)NCc2ccccc2)CCO1 (stereo unspecified)           %     -6.29
 5  CN1CC(=O)N(c2cccc(F)c2)CC12CCN(S(C)(=O)=O)C2 (stereo unspecified)           %    -0.565
 6  O=C(Cc1ccc(-n2cccn2)cc1)N1CCCC(n2cccn2)C1 (stereo unspecified)           %     -2.94
 7  Cc1nc(CNCC2CCCN2c2cccnn2)no1 (stereo unspecified)           %     -2.08
 8  Cc1cc(C)n(CC2CN(Cc3cscn3)CCO2)n1 (stereo unspecified)           %     -1.81
 9  COc1cc2cc(C(=O)N[C@@H](C)C(=O)O)n(C)c2c(OC)c1OC           %     -3.11
10  O=C(Nc1ccnc(OC2CCOC2)c1)c1cc(F)ccc1F (stereo unspecified)           %     -4.18

* * *

# ASSAYED TARGET: Aspartate--tRNA(Asp/Asn) ligase (Mycobacterium tuberculosis (strain ATCC 25618 / H37Rv)) (UniProt P9WFW3)
# Sequence (whole entry): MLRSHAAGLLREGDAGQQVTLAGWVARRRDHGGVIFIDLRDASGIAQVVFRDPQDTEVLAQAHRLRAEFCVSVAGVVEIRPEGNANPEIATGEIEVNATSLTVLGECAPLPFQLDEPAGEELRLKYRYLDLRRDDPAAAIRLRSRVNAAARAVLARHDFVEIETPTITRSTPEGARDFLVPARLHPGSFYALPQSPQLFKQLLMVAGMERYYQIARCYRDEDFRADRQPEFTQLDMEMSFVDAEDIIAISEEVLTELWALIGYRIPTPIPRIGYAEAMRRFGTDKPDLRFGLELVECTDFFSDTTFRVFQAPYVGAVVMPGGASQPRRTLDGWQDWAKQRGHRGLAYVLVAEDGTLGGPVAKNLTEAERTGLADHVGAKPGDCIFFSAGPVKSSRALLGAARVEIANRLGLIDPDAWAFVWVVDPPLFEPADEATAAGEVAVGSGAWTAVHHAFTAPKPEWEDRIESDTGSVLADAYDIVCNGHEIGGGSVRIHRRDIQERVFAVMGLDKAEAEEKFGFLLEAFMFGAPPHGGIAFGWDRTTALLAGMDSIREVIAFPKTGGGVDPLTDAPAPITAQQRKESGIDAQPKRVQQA
# EXPERIMENT SUMMARY: Assay for Asp RNA synthetase-1 from Mycobacterium tuberculosis
# Assay type: functional
# Set-up: scale not given: in the data most compounds retested in dose-response had high values
# CONDITION SET: 30 µM
Collected Percent Effect values appear next to each entry.
PROPERTY MEASURED: Percent Effect (%)

>>> df
                                    compound  property_measured  observed
 0  N#Cc1cccc(CS(=O)(=O)NCCC(O)c2ccccc2)c1 (stereo not given)     Percent Effect     -1.46
 1  CSC(C)C(=O)N1CCCN(Cc2cscn2)CC1 (stereo not given)     Percent Effect     -6.57
 2  CN(Cc1ccsc1)C(=O)Nc1ccc(S(=O)(=O)N(C)C)cc1     Percent Effect     0.428
 3    CC1(C)Cc2ccccc2-c2nc(NCCO)[nH]c(=O)c21     Percent Effect      3.08
 4  c1cnc(-c2nc(CN3CCCC(Cn4cncn4)C3)cs2)nc1 (stereo not given)     Percent Effect     -1.55
 5  Cc1nonc1CC(=O)N1C[C@@H]2CC[C@H](C1)N(Cc1ccccc1)C2=O     Percent Effect      1.39
 6           CCOc1ncccc1NC(=O)c1cc2c(s1)CCC2     Percent Effect     -3.51
 7  CCNC(=O)c1ccoc1CN1c2ccccc2CC1C (stereo not given)     Percent Effect      2.94
 8  Cc1cnn(CC2CN(c3ncnc4ccccc34)CCO2)c1 (stereo not given)     Percent Effect        -7
 9  CN1CCCC(Cc2cncc(C(=O)NCC3CC3)c2)C1 (stereo not given)     Percent Effect     -1.03
10     Cc1cc(CNc2cc(Cl)ccc2OCCS(C)(=O)=O)no1     Percent Effect     -2.26
11  Cc1ccccc1C1CCCN1C(=O)CN1CC2(CCNCC2)OC1=O (stereo not given)     Percent Effect      3.25
12  CCCS(=O)(=O)N1CCN(c2cc(-n3nc(C)cc3C)nc(C)n2)CC1     Percent Effect     -3.15
13  CS(=O)(=O)NCc1ncn2c1CN(C(=O)CC1CCCC1)CCC2     Percent Effect     -2.09
14  Cc1cnn(CC2CN(c3ncnc4ccsc34)CCO2)c1 (stereo not given)     Percent Effect     -1.51
15             O=C(CCn1ccccc1=O)Nc1ccc(I)cc1     Percent Effect      8.05
16            CCN(Cc1cccc2c1OCO2)C(=O)NC1CC1     Percent Effect    -0.162
17  Cc1cccnc1NCCNC(=O)[C@H]1CNC[C@@H](C(=O)N2CCCC2)C1     Percent Effect    -0.342
18  NC(=O)CSCCC(=O)N1CCCC1c1ccsc1 (stereo not given)     Percent Effect     -7.94
19  O=C(c1ccco1)N1CCC2(CCOC2)C1 (stereo not given)     Percent Effect      2.53
20  CC(NC(=O)NCCCN1CCCCCC1)c1nncn1C (stereo not given)     Percent Effect      2.07
21  Fc1ccc(OCCCN2CCOC(Cn3cncn3)C2)cc1 (stereo not given)     Percent Effect     -6.13
22     Cc1ncsc1-c1nnc(C2CCN(CC3CCCCC3)CC2)o1     Percent Effect     -2.81
23  O=C1CC2(CCN(c3nncs3)C2)CN1c1ccccc1 (stereo not given)     Percent Effect       2.1
24  CCc1cnc(CN(C)C2CCN(CCc3ccccn3)C2)o1 (stereo not given)     Percent Effect    0.0557
